test: binders of probe aHhip on microarray, primary screen, stem cell growth factor project, biochemical, small-molecule microarray, fluorescence 635/667 (AID 1087); conditions: higher = more signal;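 note: score merges spot fluorescence at 667nm with spot signal to noise ratio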
Field: composite z-score. Provide a value for each of the compounds that follow.
Answer with a number only.

INPUT: Endpoint output: composite z-score of `COc1ccc([Si](C)(C)[C@@H]2[C@@H](CCn3cc([C@H](O)c4ccccc4)nn3)O[C@]3(C(=O)N(C)c4c(Br)cc(C)cc43)[C@H]2C)cc1` . Value?
OUTPUT: 0.154

INPUT: Endpoint output: composite z-score of `CO[C@H]1O[C@H](CO)[C@@H](OC(=O)Nc2ccccc2)[C@H](OC(=O)Nc2ccccc2-c2ccccc2)[C@H]1OC(=O)Nc1ccccc1-c1ccccc1` . Value?
OUTPUT: -0.0296

INPUT: Endpoint output: composite z-score of `C[N+](C)(C)CCCCNC(=O)[C@@H]1C[C@@H]2C(=O)NCC(=O)N2[C@@H]1c1cccc(OCCO)c1` . Value?
OUTPUT: 0.167

INPUT: Endpoint output: composite z-score of `CCCCCCC#C[Si](O[C@H](c1ccccc1)c1cn(Cc2ccccc2)nn1)(C(C)C)C(C)C` . Value?
OUTPUT: 0.243

###

Field: z-score. Provide a value for each of the compounds that follow.
assay: E. coli DRC41 culture turbidity changes, primary screen, E. coli filamentation inducer project, strain DRC41, OD650, 48 h (AID 1152);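 note: E. coli MC1000 strain DRC41 lacking acrAB efflux pump and sulA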; conditions: E. coli DRC41 (acrAB sulA), higher = more signal, called active from +8 up or from −8 down
Answer with a number only.

INPUT: Endpoint output: z-score of `C=C(C(=O)CC[C@H](OC(C)=O)c1ccc(CO)o1)C(C)C` . Value?
OUTPUT: 1.27

INPUT: Endpoint output: z-score of `C=CCNC(=O)[C@@H]1[C@H]2C(=O)O[C@H](c3ccccc3)[C@H](c3ccccc3)N2[C@H](c2ccc(O)cc2)[C@@]12C(=O)Nc1ccccc12` . Value?
OUTPUT: 1.88

INPUT: Endpoint output: z-score of `CC(C)(C)OC(=O)CC[C@]1(C(=O)NCc2ccccc2)COC(c2ccc(OCCCO)cc2)=N1` . Value?
OUTPUT: 2.02

INPUT: Endpoint output: z-score of `CC(C)(C)OC(=O)CC[C@@]1(C(=O)NCc2ccccc2)N=C(c2ccc(OCCCO)cc2)O[C@@H]1c1ccccc1CN=[N+]=[N-]` . Value?
OUTPUT: 2.4

INPUT: Endpoint output: z-score of `CCCCC(=C=CC[C@H](O)c1cccc(OCCO)c1)CCO` . Value?
OUTPUT: 0.892

INPUT: Endpoint output: z-score of `CC(C)(C)OC(=O)CC[C@@]12N=C(c3ccc(OCCCO)cc3)O[C@@H]1c1ccccc1N(Cc1ccccc1)C2=O` . Value?
OUTPUT: 0.94

INPUT: Endpoint output: z-score of `COC(=O)C(CC#Cc1ccc2c(c1)[C@]1(C(=O)N2)[C@H](c2ccccc2OCCO)N2[C@H](c3ccccc3)[C@H](c3ccccc3)OC(=O)[C@H]2[C@@H]1C(=O)N1CCCCCCC1)C(=O)OC` . Value?
OUTPUT: 1.02

INPUT: Endpoint output: z-score of CN1C=C(C(=O)OCCS(C)(=O)=O)C(C(=O)OCCS(C)(=O)=O)=CC(CCCO)=CC1c1cccs1 (stereo not given) . Value?
OUTPUT: 0.302

INPUT: Endpoint output: z-score of `CC(C)(C)OC(=O)CC[C@@]12N=C(c3ccc(OCCCO)cc3)O[C@@H]1c1ccccc1CN(Cc1ccccc1)C2=O` . Value?
OUTPUT: 0.71

INPUT: Endpoint output: z-score of COC(=O)C1=CC(c2ccc(CO)cc2)=CC(c2cccs2)N(C)C=C1C(=O)OC (stereo not given) . Value?
OUTPUT: 2.46

INPUT: Endpoint output: z-score of `C=C(COC)C(=O)CC[C@@H](OC(=O)c1ccccc1-c1ccccc1C(=O)O)c1cccc(OCCO)c1` . Value?
OUTPUT: 0.908

INPUT: Endpoint output: z-score of C=CCC(OC(C)=O)[C@@H]1[C@@H](N(Cc2ccc(-c3ccccc3)cc2)C(=O)c2ccc(-c3ccccc3)cc2)c2cc(OCCCO)ccc2N1C(=O)c1ccc(-c2ccccc2)cc1 (stereo not given in full) . Value?
OUTPUT: 2.03

INPUT: Endpoint output: z-score of CC(C)C[C@@H]1NC(=O)[C@@]23C(=O)N[C@@H](Cc4ccccc4)C2[C@H](C)[C@@]2(C)O[C@H]2C3/C=C/CC/C=C/CNC(=O)[C@@H](C)NC1=O (stereo not given in full) . Value?
OUTPUT: 2.61

INPUT: Endpoint output: z-score of `COc1ccc([Si](C)(C)[C@H]2[C@H](CC(=O)N(CCO)Cc3ccccc3)O[C@@]3(C(=O)N(Cc4cccc(N5C(=O)COc6ccccc65)c4)c4ccccc43)[C@@H]2C)cc1` . Value?
OUTPUT: 2.01

INPUT: Endpoint output: z-score of `COc1ccc([Si](C)(C)[C@@H]2[C@@H](CC(=O)N3CCC[C@H]3CO)O[C@]3(C(=O)N(Cc4ccc(I)cc4)c4ccccc43)[C@H]2C)cc1` . Value?
OUTPUT: 1.97

###

Field: z-score. Provide a value for each of the molecules that follow.
molecular target: NADPH oxidase 2 (Homo sapiens) (UniProt P04839); test: NOX2-dependent H2O2 signal modulators, primary screen, NOX inhibitor project, cell-based, HEK293-NOX2, PMA-stimulated, Amplex Red fluorescence (AID 1159); settings: 45 min, higher = more signal, called active from +8 up or from −8 down; note: test concentration not given here
Sequence (P04839 whole entry, looked up): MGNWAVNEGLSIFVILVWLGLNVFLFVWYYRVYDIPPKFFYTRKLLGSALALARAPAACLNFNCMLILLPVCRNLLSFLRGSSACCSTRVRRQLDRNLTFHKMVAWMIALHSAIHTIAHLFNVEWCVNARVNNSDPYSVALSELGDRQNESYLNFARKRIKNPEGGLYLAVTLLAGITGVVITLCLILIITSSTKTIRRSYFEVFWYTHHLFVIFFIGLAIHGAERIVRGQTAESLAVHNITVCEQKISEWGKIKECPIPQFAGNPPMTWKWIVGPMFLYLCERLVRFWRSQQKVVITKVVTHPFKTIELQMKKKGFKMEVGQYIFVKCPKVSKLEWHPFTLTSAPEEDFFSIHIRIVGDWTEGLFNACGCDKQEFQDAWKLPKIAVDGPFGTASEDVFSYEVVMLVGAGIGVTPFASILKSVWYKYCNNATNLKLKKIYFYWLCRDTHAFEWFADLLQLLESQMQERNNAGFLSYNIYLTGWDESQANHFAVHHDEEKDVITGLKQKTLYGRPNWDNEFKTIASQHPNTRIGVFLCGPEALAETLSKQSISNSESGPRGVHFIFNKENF
Activity calls are given as the source filed them.

INPUT: I'm curious: which z-score was measured for `C=C(CCCC)/C(=C/C[C@@H](OC(=O)c1ccncc1)c1ccc(OCCO)cc1)c1cnc2ccccc2c1` tested on NADPH oxidase 2 (Homo sapiens) (UniProt P04839)?
OUTPUT: -1.06 (inactive)

INPUT: I'm curious: which z-score was measured for `CC(C)(C)OC(=O)CC[C@]1(C(=O)NCc2ccccc2)COC(c2ccc(OCCCO)cc2)=N1` tested on NADPH oxidase 2 (Homo sapiens) (UniProt P04839)?
OUTPUT: 0.117 (inactive)

INPUT: I'm curious: which z-score was measured for `COc1ccc([Si](C)(C)[C@@H]2[C@@H](CC(=O)N3CCC[C@H]3CO)O[C@]3(C(=O)N(Cc4ccc(N5CCC5=O)cc4)c4ccccc43)[C@H]2C)cc1` tested on NADPH oxidase 2 (Homo sapiens) (UniProt P04839)?
OUTPUT: 2.99 (inactive)

INPUT: I'm curious: which z-score was measured for C#CCN1C(C(=O)OCC)OC[C@H]1c1ccccc1 (stereo partly drawn) tested on NADPH oxidase 2 (Homo sapiens) (UniProt P04839)?
OUTPUT: 0.413 (inactive)

INPUT: I'm curious: which z-score was measured for `O=C(NCc1ccccc1)[C@@H]1c2ccccc2C(=O)N(Cc2ccccc2Cl)[C@H]1c1ccc(CO)cc1` tested on NADPH oxidase 2 (Homo sapiens) (UniProt P04839)?
OUTPUT: -0.932 (inactive)

INPUT: I'm curious: which z-score was measured for `[N-]=[N+]=NCc1ccccc1C[C@@]1(C(=O)O)N=C(c2ccc(OCCCO)cc2)O[C@@H]1c1ccccc1` tested on NADPH oxidase 2 (Homo sapiens) (UniProt P04839)?
OUTPUT: 1.07 (inactive)

INPUT: I'm curious: which z-score was measured for `C[N+](C)(C)CCCC[C@@H]1NC(=O)[C@H]2C[C@@H](C(=O)NCCCCCN)[C@@H](c3cccc(OCCO)c3)N2C1=O` tested on NADPH oxidase 2 (Homo sapiens) (UniProt P04839)?
OUTPUT: 1.03 (inactive)

INPUT: I'm curious: which z-score was measured for `CC(C)NC(=O)[C@@H]1c2ccccc2C(=O)N(Cc2cc(F)cc(C(F)(F)F)c2)[C@H]1c1ccc(CO)cc1` tested on NADPH oxidase 2 (Homo sapiens) (UniProt P04839)?
OUTPUT: 0.146 (inactive)

###

assay: RPMI8226 myeloma cell viability, profiling panel, resazurin fluorescence, basal, 24 h, PK04 Diversity Set (AID 1180); settings: higher = more signal;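 note: RPMI8826 multiple myeloma cell line at 5000 cells per well; test concentration not given here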
quantity.kind: z-score
Answer with a number only.

INPUT: Endpoint output: z-score of `C=C(/C(=C/C[C@H](OC(=O)c1ccncc1)c1cccc(OCCO)c1)c1cc(C(=O)OC)ccc1OC)C(C)C` . Value?
OUTPUT: 0.987

INPUT: Endpoint output: z-score of `O=C(NO)[C@]1(Cc2ccccc2)N=C(c2ccc(OCCCO)cc2)O[C@@H]1c1ccccc1` . Value?
OUTPUT: 0.963

INPUT: Endpoint output: z-score of CC1CC/C=C\[C@H]2OC34C=CCN(C(C)C)C(=O)[C@H]3N(C(CO)C(C)C)C(=O)[C@@H]4C2C(=O)O1 (stereo partly drawn) . Value?
OUTPUT: 0.838

INPUT: Endpoint output: z-score of `COCCCNC(=O)[C@@]1(C)c2ccccc2C(=O)N(Cc2cc(F)cc(C(F)(F)F)c2)[C@H]1c1ccc(CO)cc1` . Value?
OUTPUT: 1.31

INPUT: Endpoint output: z-score of `CC(C)N1C(=O)c2ccccc2[C@@H](C(=O)NCc2ccccc2)[C@@H]1c1ccc(CO)cc1` . Value?
OUTPUT: 1.01

INPUT: Endpoint output: z-score of `CCCNC(=O)[C@@H]1c2ccccc2C(=O)N(Cc2cc(C(F)(F)F)cc(C(F)(F)F)c2)[C@H]1c1ccc(CO)cc1` . Value?
OUTPUT: 1.63

INPUT: Endpoint output: z-score of `CC(C)C[C@@H]1NC(=O)[C@@H]2C[C@H](C(=O)NCCCCCNC(=O)CS)[C@H](c3cccc(OCCO)c3)N2C1=O` . Value?
OUTPUT: 0.673

INPUT: Endpoint output: z-score of `CN(C)CCCC[C@@H]1NC(=O)[C@@H]2C[C@H](C(=O)NCCCCCNC(=O)CS)[C@H](c3cccc(OCCO)c3)N2C1=O` . Value?
OUTPUT: 0.608

# credit: PubChem BioAssay
